Each recorded value in this set is attributed to PubChem BioAssay AID330.

System: P388 leukemia ip, CD2F1 mice, survival T/C
measurement.protocol: NCI In Vivo Anticancer Drug Screen. Data for tumor model P388 Leukemia (intraperitoneal) in CD2F1 (CDF1) mice
experimental.context: endpoint: median survival time; dose: 50.0 mg/kg/injection; schedule: Q01DX005 (ip); vehicle: saline; higher = longer survival
Toxic doses and inconclusive results are not listed.
measure.name: T/C

C1CCC2OCCOCCOCCOCCOC2C1 (centres undefined) = 95 % of control

stdin: Find the measured T/C of CC(=O)N1C2C3CCC(C)(OC3(C)C)C21 (centres undefined) with P388 leukemia ip, CD2F1 mice, survival T/C as test system.
stdout: 107 % of control

stdin: Provide T/C, recorded with P388 leukemia ip, CD2F1 mice, survival T/C, of OCc1ccc(O)c(O)c1
stdout: 116 % of control

stdin: Check P388 leukemia ip, CD2F1 mice, survival T/C data and give T/C for C1COCCOCCNCCOCCOCCN1 .
stdout: 95 % of control

====

System: P388 leukemia ip, CD2F1 mice, survival T/C
measurement.protocol: NCI In Vivo Anticancer Drug Screen. Data for tumor model P388 Leukemia (intraperitoneal) in CD2F1 (CDF1) mice
experimental.context: endpoint: median survival time; dose: 50.0 mg/kg/injection; schedule: Q01DX009 (ip); vehicle: saline; higher = longer survival
Inconclusive results and toxic doses are left out.
measure.name: T/C

Observe how each entry below is paired with its result.
C=CCCC(OC(C)C)OC(C)C = 98 % of control
OCCc1ccccn1 = 102 % of control
O=C1NC2(c3ccccc3)NC(=O)NC2(c2ccccc2)N1 (stereo not given) = 99 % of control

stdin: Input CS(=O)(=O)OCCN(CCOS(C)(=O)=O)c1ccccc1 , output reported T/C.
stdout: 90 % of control

stdin: # return recorded T/C for input CC(=O)c1ccc2c(c1)N(CCCN(C)C)c1ccccc1S2
stdout: 101 % of control

stdin: Please indicate T/C recorded for CC(C)OC(=O)NC1CCC2CCCCC2C1 (stereo not given)
stdout: 102 % of control

stdin: Identify T/C associated with the compound CNC1=CC(=O)c2c(c3cc(OC(C)=O)ccc3n2C)C1=O
stdout: 99 % of control

stdin: Answer with reported T/C of Cn1c(=O)c2[nH]c(/N=N/N(CCCl)CCCl)nc2n(C)c1=O
stdout: 100 % of control

stdin: Give T/C for COc1cc2c(cc1O)-c1c(cnn1-c1ccccc1)CCC2
stdout: 119 % of control

stdin: Complete the entry with T/C for CC(=O)NCNC(C)=O
stdout: 100 % of control

====

Test system: P388 leukemia ip, CD2F1 mice, survival T/C
measurement.protocol: NCI In Vivo Anticancer Drug Screen. Data for tumor model P388 Leukemia (intraperitoneal) in CD2F1 (CDF1) mice
experimental.context: endpoint: median survival time; dose: 100.0 mg/kg/injection; schedule: Q01DX009 (ip); vehicle: saline with Tween-80
Description: The antitumor activity of compounds was measured in mice bearing transplantable tumors. Survival or tumor size were measured and the results are expressed as the measurement made in the treated group (T) divided by the measurement made in the vehicle treated control group (C). The tumor model used in this assay is P388 Leukemia (intraperitoneal) in CD2F1 (CDF1) mice
Inconclusive results and toxic doses are left out. Rule for the calls: active = survival T/C of 150% or more; inactive = T/C below 125% in these data.
Your answer must be one of the following: 1 = active, 0 = inactive

Solved entries:
Cc1ccnc(N=C2N=C(Nc3cc(C)ccn3)c3ccccc32)c1 = 0
COc1cccc(-c2nc3n(n2)CCc2ccccc2-3)c1 = 0
O=C(O)c1oc2ccccc2c1/C=C/c1ccccc1 = 0
CC(C)=CCc1c2c(c(O)c3c(=O)c(-c4ccc(O)cc4O)coc13)C=CC(C)(C)O2 = 0
O=P1(O)CC2=C(CC=CC2)C1 = 0

stdin: Dear colleague, could you share the recorded outcome for C#CC(O)(c1ccccc1)c1ccc(N2CCOCC2)cc1 (stereo not drawn) when you have a moment?
stdout: 0

====

T/C by entry:
Test system: P388 leukemia ip, CD2F1 mice, survival T/C
measurement.protocol: NCI In Vivo Anticancer Drug Screen. Data for tumor model P388 Leukemia (intraperitoneal) in CD2F1 (CDF1) mice
experimental.context: endpoint: median survival time; dose: 100.0 mg/kg/injection; schedule: Q01DX001 (ip); vehicle: saline; higher = longer survival
Toxic doses and inconclusive results are not listed.

CC1(C)OC2C3COC(O3)C(O)C2O1 (stereo unspecified) = 107 % of control
CNC(=O)ON(C(C)=O)C(=O)NC = 105 % of control
C1=C(B2OCCNO2)CCCC1 = 101 % of control
COC1C2OC(C)(C)OC2OC1C(C)N(C)O (stereo unspecified) = 116 % of control
CCO/C(C)=[N+](/[O-])S(=O)(=O)c1c(C)cc(C)cc1C = 103 % of control

stdin: Quote T/C reported for O=C(O)C(O)C(O)C(O)C(O)c1nn[nH]n1 (stereo unspecified) please.
stdout: 101 % of control

stdin: Let me know recorded T/C for C[P+]1(C)CCCCC1 , thanks.
stdout: 98 % of control

stdin: Specify T/C for NNc1ncc(S(=O)(=O)Cc2ccc3c(c2)OCO3)c(N)n1 and stop.
stdout: 101 % of control

stdin: Provide one value: measured T/C of CC1(C)NC(=O)N2CCCC(=O)CC21 (stereo unspecified)
stdout: 96 % of control

stdin: Give reported T/C value for COC(=O)C(CC(=O)c1cc2c(cc1Br)OCO2)(Cc1cc(OC)c(OC)c(OC)c1I)C(=O)OC
stdout: 100 % of control

stdin: Complete the entry with T/C for Cc1ncc(S(=O)(=O)Cc2ccc3c(c2)OCO3)c(N)n1
stdout: 96 % of control

====

Tested on: P388 leukemia ip, CD2F1 mice, survival T/C
measurement.protocol: NCI In Vivo Anticancer Drug Screen. Data for tumor model P388 Leukemia (intraperitoneal) in CD2F1 (CDF1) mice
experimental.context: endpoint: median survival time; dose: 400.0 mg/kg/injection; schedule: Q04DX002 (ip); vehicle: Klucel (hydroxypropylcellulose) (HPC); higher = longer survival
Toxic doses and inconclusive results are not listed.
measure.name: T/C

Examples with their reported T/C follow.
C=CCNC(=S)N\N=C/C(/C=C/c1ccccc1)=N\NC(=S)NCC=C = 91 % of control
COC(C)(C)c1cc(C(C)(C)C)cc2c1SOC2(C)C = 114 % of control
CCN(CC)C1=NS(=O)(=O)c2ccccc2C(=O)C1C (stereo unspecified) = 100 % of control

stdin: Please look at this compound and report its T/C: BOc1ccc(C)cc1CN(C)Cc1ccccc1
stdout: 104 % of control

stdin: Return reported T/C. Input compound: O/N=C/c1c(-c2ccccc2)nc2n1CCS2
stdout: 98 % of control

stdin: Query T/C for Cc1ccc(S(=O)(=O)NN=c2c3ccccc3ccc3ccccc23)cc1
stdout: 90 % of control

====

System: P388 leukemia ip, CD2F1 mice, survival T/C
measurement.protocol: NCI In Vivo Anticancer Drug Screen. Data for tumor model P388 Leukemia (intraperitoneal) in CD2F1 (CDF1) mice
experimental.context: endpoint: median survival time; dose: 25.0 mg/kg/injection; schedule: Q01DX005 (ip); vehicle: saline; higher = longer survival
Toxic doses and inconclusive results are not listed.
Quick reference for T/C among some compounds

Here is how some compounds turned out for T/C.
CCC(C)N(CC(C)C)CC(C)(O)CNc1cc(OC)cc2cccnc12 (stereo not drawn) = 105 % of control
CC1=CC(C)CN(C)C1 (stereo not drawn) = 105 % of control

Okay, next one:
stdin: State its T/C: N#CC1OC1c1cccc[n+]1[O-] (stereo not drawn)
stdout: 102 % of control

====

Test system: P388 leukemia ip, CD2F1 mice, survival T/C
measurement.protocol: NCI In Vivo Anticancer Drug Screen. Data for tumor model P388 Leukemia (intraperitoneal) in CD2F1 (CDF1) mice
experimental.context: endpoint: median survival time; dose: 6.25 mg/kg/injection; schedule: Q01DX005 (ip); vehicle: saline with Tween-80
Inconclusive results and toxic doses are left out. The calls were made as follows: active = survival T/C of 150% or more; inactive = T/C below 125% in these data.
Result category, one only: active, inactive

Cc1nn(C(=O)c2cccnc2)c(-c2ccccc2)c1N=Nc1ccc(S(=O)(=O)N=C(N)N)cc1 = inactive

stdin: Name the outcome recorded for CN1CCc2cc3c(cc2[C@H]1[C@@H]1OC(=O)c2c1ccc1c2OCO1)OCO3 in the assay.
stdout: inactive

stdin: Which result was noted for this molecule in the test: O=C(Nc1ccc(C2=NCC(O)CN2)cc1)c1ccc(C(=O)Nc2ccc(C3=NCC(O)CN3)cc2)cc1 (centres undefined)
stdout: active

stdin: Could you please tell me the result logged for O=c1[nH]cnc2c1ccc1[nH]ncc12 in this assay?
stdout: inactive

====

Tested on: P388 leukemia ip, CD2F1 mice, survival T/C
measurement.protocol: NCI In Vivo Anticancer Drug Screen. Data for tumor model P388 Leukemia (intraperitoneal) in CD2F1 (CDF1) mice
experimental.context: endpoint: median survival time; dose: 240.0 mg/kg/injection; schedule: Q01DX005 (ip); vehicle: saline with Tween-80; higher = longer survival
Inconclusive results and toxic doses are left out.
Overview of recorded T/C for various compounds

Past entries and their recorded results:
C[C@@]12CCCC[C@@H]1N(CCN1CCCCC1)c1ccccc12 = 98 % of control
CC(C)(C)NC(=O)Nc1cccc(C(=O)O)c1 = 105 % of control
CCN(CCOC(=O)Nc1ccc(F)cc1)c1ccccc1 = 94 % of control
CC(=O)C(C)(C)Cc1cc(C(C)(C)CC=O)on1 = 108 % of control
CCCCN=C(c1ccc(O)cc1)c1ccc(OC)cc1O = 99 % of control

stdin: For the compound CCc1cccc(CC)c1NC1=C(Cl)C(=O)c2ccccc2C1=O , report T/C.
stdout: 104 % of control
